target or system: T1, Recombinant human PSGL-1(ECD)-hFc1 (R&D Systems, Cat. 3345-PS) (human, UniProt Q14242 42-305)
T1 construct: Bought; Gln42-Val295 counted on AAC50061; also called PSGL-1-Fc; PSGL-1-hFc1 chimera; not shown: human IgG1 Fc, Pro100-Lys330
T1 sequence: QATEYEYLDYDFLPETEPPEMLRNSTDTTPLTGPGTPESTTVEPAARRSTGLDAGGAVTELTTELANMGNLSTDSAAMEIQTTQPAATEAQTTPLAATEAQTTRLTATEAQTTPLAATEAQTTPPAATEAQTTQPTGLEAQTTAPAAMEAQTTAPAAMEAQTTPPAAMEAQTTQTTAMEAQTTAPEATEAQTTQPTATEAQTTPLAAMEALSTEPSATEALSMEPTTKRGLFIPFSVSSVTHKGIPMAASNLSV
experiment notes: Octet tandem; competitor 19J23
Each entry below carries its recorded % binding of analyte mAb.
# value in %; strip the unit string

Completed entries (count: 3):
19N05 (antibody, V domains shown, From mouse immunisation; only variable domains given) VH: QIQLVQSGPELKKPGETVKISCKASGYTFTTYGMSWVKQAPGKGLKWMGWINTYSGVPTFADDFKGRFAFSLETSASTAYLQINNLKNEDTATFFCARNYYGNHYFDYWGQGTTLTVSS VL: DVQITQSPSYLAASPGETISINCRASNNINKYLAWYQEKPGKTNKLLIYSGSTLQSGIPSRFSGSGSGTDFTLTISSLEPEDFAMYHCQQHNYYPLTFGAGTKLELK ... 125
19L04 (antibody, IgG4, V domains shown, From mouse immunisation; only variable domains given) VH: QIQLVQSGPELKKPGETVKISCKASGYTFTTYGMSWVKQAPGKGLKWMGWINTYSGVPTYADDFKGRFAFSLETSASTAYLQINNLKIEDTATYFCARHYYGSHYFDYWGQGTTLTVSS VL: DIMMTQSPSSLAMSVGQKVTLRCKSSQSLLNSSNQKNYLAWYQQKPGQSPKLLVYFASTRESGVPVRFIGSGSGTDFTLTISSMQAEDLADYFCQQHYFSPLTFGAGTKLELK ... 104
18F17 (antibody, V domains shown, Non-functional anti-PSGL-1 mAb (Verseau); only variable domains given) VH: QVTLKESGPGILQPSQTLSLTCSFSGFSLSTFGMGVGWIRQPSGKGLEWLAHIWWDDDKYYNPALKSRLTISKDTSKNQVFLKIANVDTADTATYYCAIYYDYGVGFDYWGQGTTLTVSS VL: DIVMTQAAPSVPVTPGESVSISCRSSKSLLHSNGYTFLYWFLQRPGQSPQLLIYRMSNLASGVPDRFSGSGSGTAFTLRISRVEAEDVGVYYCMQHLEYPFTFGTGTKLEIK ... 26.9

Field request: % binding of analyte mAb | item: 15A7 (antibody, V domains shown, Control mAb, recombinant; also called h15A7; 15A17) VH: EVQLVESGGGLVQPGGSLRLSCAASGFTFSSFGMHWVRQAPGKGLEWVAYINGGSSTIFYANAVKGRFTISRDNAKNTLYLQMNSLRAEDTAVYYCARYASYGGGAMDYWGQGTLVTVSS VL: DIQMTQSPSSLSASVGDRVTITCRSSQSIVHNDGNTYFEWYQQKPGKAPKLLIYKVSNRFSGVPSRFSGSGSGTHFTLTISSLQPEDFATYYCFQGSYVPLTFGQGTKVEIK
94.3
